- target-desc: T1, human IL-23 (human, UniProt P29460 23-328; Q9NPF7 20-189)
- T1 construct: Recombinant (Ebioscience); HIS-tagged in flow cytometry, biotinylated in some assays; also called hIL-23; rhIL-23
- T1 sequence 1: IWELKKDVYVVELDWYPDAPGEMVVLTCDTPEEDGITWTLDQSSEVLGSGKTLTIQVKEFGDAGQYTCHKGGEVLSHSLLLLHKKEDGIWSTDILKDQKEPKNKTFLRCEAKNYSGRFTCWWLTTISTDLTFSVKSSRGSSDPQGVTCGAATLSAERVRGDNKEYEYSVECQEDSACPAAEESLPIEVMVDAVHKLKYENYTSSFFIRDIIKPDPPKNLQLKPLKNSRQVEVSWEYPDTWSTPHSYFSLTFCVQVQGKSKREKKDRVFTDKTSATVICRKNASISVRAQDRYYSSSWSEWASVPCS
- T1 sequence 2: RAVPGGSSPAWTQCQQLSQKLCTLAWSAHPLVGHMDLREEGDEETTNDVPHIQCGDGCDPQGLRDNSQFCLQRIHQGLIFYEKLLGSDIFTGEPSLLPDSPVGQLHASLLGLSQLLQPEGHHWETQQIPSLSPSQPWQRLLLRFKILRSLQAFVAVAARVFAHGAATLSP
- test-details: SPR, single 81 nM analyte, scFv via FLAG
Known Kd of a selection of binders

Sample answers from the record:
- scFv combo. # 14 (scFv, scFv-80 with VH F29L, Q43R; VL I55T; not shown: proprietary C-terminal FLAG tag) scFv: QVQLVQSGAEVKKPGASVKVSCKASGYTLTDYYLHWVRQAPGRGLEWMGWIDPENGDTEYAPKFQGRVTMTTDTSTSTAYMELRSLRSDDTAVYYCNANKELRYFDVWGQGTMVTVSSGGGGSGGGGSGGGGSEIVMTQSPATLSVSPGERATLSCRASQSISINLHWYQQKPGQAPRLLIYFASQSTSGIPARFSGSGSGTEFTLTISSLQSEDFAVYYCQQSNSFPLTFGGGTKVEIKR: 0.079 nM
- scFv combo. # 10 (scFv, scFv-80 with VH T28A, Y59H; not shown: proprietary C-terminal FLAG tag) scFv: QVQLVQSGAEVKKPGASVKVSCKASGYAFTDYYLHWVRQAPGQGLEWMGWIDPENGDTEHAPKFQGRVTMTTDTSTSTAYMELRSLRSDDTAVYYCNANKELRYFDVWGQGTMVTVSSGGGGSGGGGSGGGGSEIVMTQSPATLSVSPGERATLSCRASQSISINLHWYQQKPGQAPRLLIYFASQSISGIPARFSGSGSGTEFTLTISSLQSEDFAVYYCQQSNSFPLTFGGGTKVEIKR: ≤ 0.013 nM
- scFv combo. # 1 (scFv, scFv-80 with VH Q43R, Y59H; VL I55T; not shown: proprietary C-terminal FLAG tag) scFv: QVQLVQSGAEVKKPGASVKVSCKASGYTFTDYYLHWVRQAPGRGLEWMGWIDPENGDTEHAPKFQGRVTMTTDTSTSTAYMELRSLRSDDTAVYYCNANKELRYFDVWGQGTMVTVSSGGGGSGGGGSGGGGSEIVMTQSPATLSVSPGERATLSCRASQSISINLHWYQQKPGQAPRLLIYFASQSTSGIPARFSGSGSGTEFTLTISSLQSEDFAVYYCQQSNSFPLTFGGGTKVEIKR: ≤ 0.032 nM
- scFv combo. # 2 (scFv, scFv-80 with VH T28A, Y59S; not shown: proprietary C-terminal FLAG tag) scFv: QVQLVQSGAEVKKPGASVKVSCKASGYAFTDYYLHWVRQAPGQGLEWMGWIDPENGDTESAPKFQGRVTMTTDTSTSTAYMELRSLRSDDTAVYYCNANKELRYFDVWGQGTMVTVSSGGGGSGGGGSGGGGSEIVMTQSPATLSVSPGERATLSCRASQSISINLHWYQQKPGQAPRLLIYFASQSISGIPARFSGSGSGTEFTLTISSLQSEDFAVYYCQQSNSFPLTFGGGTKVEIKR: ≤ 0.034 nM
- scFv combo. # 7 (scFv, scFv-80 with VH F29L, Y59H; not shown: proprietary C-terminal FLAG tag) scFv: QVQLVQSGAEVKKPGASVKVSCKASGYTLTDYYLHWVRQAPGQGLEWMGWIDPENGDTEHAPKFQGRVTMTTDTSTSTAYMELRSLRSDDTAVYYCNANKELRYFDVWGQGTMVTVSSGGGGSGGGGSGGGGSEIVMTQSPATLSVSPGERATLSCRASQSISINLHWYQQKPGQAPRLLIYFASQSISGIPARFSGSGSGTEFTLTISSLQSEDFAVYYCQQSNSFPLTFGGGTKVEIKR: ≤ 0.0033 nM
- scFv combo. # 12 (scFv, scFv-80 with VH T28A, Y59S, T68S; not shown: proprietary C-terminal FLAG tag) scFv: QVQLVQSGAEVKKPGASVKVSCKASGYAFTDYYLHWVRQAPGQGLEWMGWIDPENGDTESAPKFQGRVSMTTDTSTSTAYMELRSLRSDDTAVYYCNANKELRYFDVWGQGTMVTVSSGGGGSGGGGSGGGGSEIVMTQSPATLSVSPGERATLSCRASQSISINLHWYQQKPGQAPRLLIYFASQSISGIPARFSGSGSGTEFTLTISSLQSEDFAVYYCQQSNSFPLTFGGGTKVEIKR: ≤ 0.016 nM
- scFv combo. # 9 (scFv, scFv-80 with VH Q43R, Y59S; VL I55T; not shown: proprietary C-terminal FLAG tag) scFv: QVQLVQSGAEVKKPGASVKVSCKASGYTFTDYYLHWVRQAPGRGLEWMGWIDPENGDTESAPKFQGRVTMTTDTSTSTAYMELRSLRSDDTAVYYCNANKELRYFDVWGQGTMVTVSSGGGGSGGGGSGGGGSEIVMTQSPATLSVSPGERATLSCRASQSISINLHWYQQKPGQAPRLLIYFASQSTSGIPARFSGSGSGTEFTLTISSLQSEDFAVYYCQQSNSFPLTFGGGTKVEIKR: ≤ 0.027 nM

For record scFv combo. # 11 (scFv, scFv-80 with VH Y59S; VL S26P; not shown: proprietary C-terminal FLAG tag) scFv: QVQLVQSGAEVKKPGASVKVSCKASGYTFTDYYLHWVRQAPGQGLEWMGWIDPENGDTESAPKFQGRVTMTTDTSTSTAYMELRSLRSDDTAVYYCNANKELRYFDVWGQGTMVTVSSGGGGSGGGGSGGGGSEIVMTQSPATLSVSPGERATLSCRAPQSISINLHWYQQKPGQAPRLLIYFASQSISGIPARFSGSGSGTEFTLTISSLQSEDFAVYYCQQSNSFPLTFGGGTKVEIKR the listed Kd is ≤ 0.027 nM
